Target: NRAS WT (Homo sapiens (Human), UniProt P01111+P62937)
Sequence (P01111 whole entry): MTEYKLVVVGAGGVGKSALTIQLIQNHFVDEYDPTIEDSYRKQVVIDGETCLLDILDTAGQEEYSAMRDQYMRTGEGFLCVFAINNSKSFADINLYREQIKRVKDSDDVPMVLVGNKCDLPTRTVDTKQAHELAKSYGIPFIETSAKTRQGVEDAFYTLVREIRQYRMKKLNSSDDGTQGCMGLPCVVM
Sequence (P62937 whole entry): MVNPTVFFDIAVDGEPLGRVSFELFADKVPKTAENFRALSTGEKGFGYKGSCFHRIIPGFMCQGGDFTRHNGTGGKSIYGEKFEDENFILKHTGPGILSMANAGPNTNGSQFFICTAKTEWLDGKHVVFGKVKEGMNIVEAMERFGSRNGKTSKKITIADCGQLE
Experiment: Ras-Raf disruption/FRET/MOA assay (BRAF RBD, Cyclophilin A)
Type: biochemical
pIC50: −log10 of the molar value.
experimental endpoint: pIC50

INSERT INTO results (structure_smiles_string, readout_value) VALUES
  ('CCn1c(-c2cccnc2[C@H](C)OC)c2c3cc(ccc31)-c1csc(n1)C[C@H](NC(=O)C1(F)CCC1)C(=O)N1CCC[C@H](N1)C(=O)OCC(C)(C)C2', '6.00 to 7.00'),
  ('CCn1c(-c2cccnc2[C@H](C)OC)c2c3cc(ccc31)-c1cc(O)cc(c1)C[C@H](NC(=O)[C@@H]1CCCCCN1C(C)=O)C(=O)N1CCC[C@H](N1)C(=O)OCC(C)(C)C2', '6.00 to 7.00'),
  ('CCn1c(-c2cccnc2[C@H](C)OC)c2c3cc(ccc31)-c1csc(n1)C[C@H](NC(=O)[C@H](C(C)C)N(C)C(=O)N1CCO[C@@]3(CCN(C)C3)C1)C(=O)N1CCC[C@H](N1)C(=O)OCC(C)(C)C2', '6.00 to 7.00'),
  ('CCn1c(-c2cccnc2[C@H](C)OC)c2c3cc(ccc31)-c1csc(n1)C[C@H](NC(=O)[C@H](C(C)C)N(C)C(=O)N1CC3(CC(N(C)C4COC4)C3)C1)C(=O)N1CCC[C@H](N1)C(=O)OCC(C)(C)C2', '6.00 to 7.00'),
  ('CCn1c(-c2cccnc2[C@H](C)OC)c2c3cc(ccc31)-c1csc(n1)C[C@H](NC(=O)[C@H](C(C)C)N(C)C(=O)N1CCN3C(=O)CN(C)C[C@H]3C1)C(=O)N1CCC[C@H](N1)C(=O)OCC(C)(C)C2', '7.00 to 8.00'),
  ('CCn1c(-c2cccnc2[C@H](C)OC)c2c3cc(ccc31)-c1csc(n1)C[C@H](NC(=O)[C@H](C(C)C)N(C)C(=O)N1C[C@@H]3OCCN(C)[C@@H]3C1)C(=O)N1CCC[C@H](N1)C(=O)OCC(C)(C)C2', '6.00 to 7.00'),
  ('CCn1c(-c2cccnc2[C@H](C)OC)c2c3cc(ccc31)-c1csc(n1)C[C@H](NC(=O)[C@H](C(C)C)N(C)C(=O)[C@H]1CCN(S(C)(=O)=O)C1)C(=O)N1CCC[C@H](N1)C(=O)OCC(C)(C)C2', '5.00 to 6.00'),
  ('CCn1c(-c2cccnc2[C@H](C)OC)c2c3cc(ccc31)-c1csc(n1)C[C@H](NC(=O)[C@H](C(C)C)N(C)C(=O)N1CCC1)C(=O)N1CCC[C@H](N1)C(=O)OCC(C)(C)C2', '7.00 to 8.00'),
  ('CCn1c(-c2cccnc2[C@H](C)OC)c2c3cc(ccc31)-c1csc(n1)C[C@H](NC(=O)[C@H](C(C)C)N(C)C(=O)N1CC([C@H](CO)OC)C1)C(=O)N1CCC[C@H](N1)C(=O)OCC(C)(C)C2', '6.00 to 7.00');
